Experimental context: in acetone, 283.35 K
Measured quantity: solubility (mole fraction)
Answers are plain numbers.

*Q* Item O=P1(C(Nc2ccccc2)c2ccccc2)OCC2(CO1)COP(=O)(C(Nc1ccccc1)c1ccccc1)OC2 (stereo unspecified) : provide solubility (mole fraction)
*A* 9.1e-05

* * *

Experimental context: in acetic acid, 313.25 K
Measured quantity: solubility (mole fraction)
Give bare numbers.

*Q* Entry O=P1(C(Nc2ccccc2)c2ccccc2)OCC2(CO1)COP(=O)(C(Nc1ccccc1)c1ccccc1)OC2 (stereo unspecified) needs its solubility (mole fraction) filled in; supply it.
*A* 0.000233

* * *

Experimental context: in isopropanol, 308.15 K
Measured quantity: solubility (mole fraction)
One number for each entry.

*Q* Look up solubility (mole fraction) of O=P1(C(Nc2ccccc2)c2ccccc2)OCC2(CO1)COP(=O)(C(Nc1ccccc1)c1ccccc1)OC2 (stereo unspecified) and report it.
*A* 0.000234

* * *

Experimental context: in isopropanol, 283.45 K
Measured quantity: solubility (mole fraction)

*Q* Report solubility (mole fraction), nothing else, for this molecule: O=P1(C(Nc2ccccc2)c2ccccc2)OCC2(CO1)COP(=O)(C(Nc1ccccc1)c1ccccc1)OC2 (stereo unspecified)
*A* 0.000107

* * *

Experimental context: in 1,2-dichloroethane, 297.95 K
Measured quantity: solubility (mole fraction)
Numbers only.

*Q* Provide only the value of recorded solubility (mole fraction) for O=P1(C(Nc2ccccc2)c2ccccc2)OCC2(CO1)COP(=O)(C(Nc1ccccc1)c1ccccc1)OC2 (stereo unspecified)
*A* 0.000153

* * *

Experimental context: in 1,4-dioxane, 298.35 K
Measured quantity: solubility (mole fraction)
Numbers only.

*Q* Tell me its solubility (mole fraction) given O=P1(C(Nc2ccccc2)c2ccccc2)OCC2(CO1)COP(=O)(C(Nc1ccccc1)c1ccccc1)OC2 (stereo unspecified) as the entry.
*A* 0.000121

* * *

Experimental context: in benzene, 338.35 K
Measured quantity: solubility (mole fraction)
Numbers only.

*Q* Please indicate solubility (mole fraction) recorded for O=P1(C(Nc2ccccc2)c2ccccc2)OCC2(CO1)COP(=O)(C(Nc1ccccc1)c1ccccc1)OC2 (stereo unspecified)
*A* 0.000266

* * *

Experimental context: in diethyl ether, 288.15 K
Measured quantity: solubility (mole fraction)

*Q* Give a short answer stating reported solubility (mole fraction) for O=P1(C(Nc2ccccc2)c2ccccc2)OCC2(CO1)COP(=O)(C(Nc1ccccc1)c1ccccc1)OC2 (stereo unspecified) .
*A* 8.6e-05

* * *

Experimental context: in toluene, 283.15 K
Measured quantity: solubility (mole fraction)

*Q* Read off the recorded solubility (mole fraction) for O=P1(C(Nc2ccccc2)c2ccccc2)OCC2(CO1)COP(=O)(C(Nc1ccccc1)c1ccccc1)OC2 (stereo unspecified)
*A* 0.000765

* * *

Experimental context: in diethyl ether, 292.95 K
Measured quantity: solubility (mole fraction)
One number for each entry.

*Q* Report solubility (mole fraction) for O=P1(C(Nc2ccccc2)c2ccccc2)OCC2(CO1)COP(=O)(C(Nc1ccccc1)c1ccccc1)OC2 (stereo unspecified)
*A* 0.000126

* * *

Experimental context: in dichloromethane, 288.3 K
Measured quantity: solubility (mole fraction)
One number for each entry.

*Q* Supply solubility (mole fraction) value. Item: O=P1(C(Nc2ccccc2)c2ccccc2)OCC2(CO1)COP(=O)(C(Nc1ccccc1)c1ccccc1)OC2 (stereo unspecified)
*A* 0.000202

* * *

Experimental context: in ethanol, 343.15 K
Measured quantity: solubility (mole fraction)
Numbers only.

*Q* Determine from records and report solubility (mole fraction) for O=P1(C(Nc2ccccc2)c2ccccc2)OCC2(CO1)COP(=O)(C(Nc1ccccc1)c1ccccc1)OC2 (stereo unspecified)
*A* 0.00036
